src = ChEMBL document CHEMBL3593224

Molecular target: Sodium-dependent serotonin transporter (Homo sapiens, UniProt P31645)
Sequence (P31645 whole entry): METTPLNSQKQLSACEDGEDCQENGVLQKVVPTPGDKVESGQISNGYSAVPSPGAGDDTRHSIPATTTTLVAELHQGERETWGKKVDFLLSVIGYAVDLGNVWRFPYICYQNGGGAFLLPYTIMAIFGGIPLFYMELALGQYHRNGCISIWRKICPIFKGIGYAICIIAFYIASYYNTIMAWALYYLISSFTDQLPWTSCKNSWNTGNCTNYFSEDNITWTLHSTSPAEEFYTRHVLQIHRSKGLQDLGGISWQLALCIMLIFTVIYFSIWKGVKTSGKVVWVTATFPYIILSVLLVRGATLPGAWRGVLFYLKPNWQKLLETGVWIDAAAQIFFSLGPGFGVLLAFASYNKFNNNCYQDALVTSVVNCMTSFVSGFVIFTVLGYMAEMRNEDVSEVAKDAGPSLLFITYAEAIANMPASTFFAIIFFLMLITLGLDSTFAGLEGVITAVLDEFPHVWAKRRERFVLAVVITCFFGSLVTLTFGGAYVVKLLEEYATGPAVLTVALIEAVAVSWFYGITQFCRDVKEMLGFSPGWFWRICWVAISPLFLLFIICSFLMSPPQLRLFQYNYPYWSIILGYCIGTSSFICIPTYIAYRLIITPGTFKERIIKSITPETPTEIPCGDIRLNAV
Experiment: Inhibition of human SERT expressed in CHOK1 cells incubated for 20 mins by [3H]-5-hydroxytryptamine uptake assay
Observable: pIC50
pIC50 is defined as minus the log10 of a concentration measured in mol/L.

Solved cases (5 shown):
INSERT INTO assay_data (smiles_input, tested_system, reported_result) VALUES
  ('CC(=O)NC[C@@H]1CNCCO[C@H]1c1ccc(C)c(Cl)c1', 'Sodium-dependent serotonin transporter (Homo sapiens, UniProt P31645)', 6.17),
  ('OC[C@H]1CNCCO[C@H]1c1ccc(Cl)c(Cl)c1', 'Sodium-dependent serotonin transporter (Homo sapiens, UniProt P31645)', 6.92),
  ('NC(=O)[C@@H]1CNCCO[C@H]1c1ccc(Cl)c(Cl)c1', 'Sodium-dependent serotonin transporter (Homo sapiens, UniProt P31645)', 6.11),
  ('CC(=O)NC[C@@H]1CNCCO[C@H]1c1ccc(Cl)c(C)c1', 'Sodium-dependent serotonin transporter (Homo sapiens, UniProt P31645)', 6.32),
  ('CN(C)C(=O)[C@@H]1CNCCO[C@H]1c1ccc(Cl)c(Cl)c1.Cl', 'Sodium-dependent serotonin transporter (Homo sapiens, UniProt P31645)', 6.46);

Now consider a different compound.
Ask: Which value of pIC50 has been reported for `CC(=O)NC[C@@H]1CNCCO[C@H]1c1ccc(Cl)c(Cl)c1.O=C(O)/C=C/C(=O)O` in the records?
Reply: 6.82

* * *

Species: Homo sapiens
Experiment: Selectivity index, ratio of IC50 for human SERT to IC50 for human NET
Note to self: values exactly at 40 are 1 (yes). So Ratio IC50 at or above 40 is 1 (yes), below is 0 (no).

Consider the following illustrative entries.
INSERT INTO results (smiles_input, label) VALUES
  ('Cl.OC[C@@H]1CNCCO[C@H]1c1ccc(Cl)c(Cl)c1', '1 (yes)'),
  ('OC[C@]1(c2ccc(Cl)c(Cl)c2)CCNCCO1', '0 (no)'),
  ('CC(=O)NC[C@@H]1CNCCO[C@H]1c1ccc(Cl)c(C)c1', '1 (yes)'),
  ('CC(=O)NC[C@@H]1CNCCO[C@H]1c1ccc(F)c(Cl)c1.O=C(O)/C=C/C(=O)O', '1 (yes)'),
  ('CNC(=O)[C@@H]1CNCCO[C@H]1c1ccc(Cl)c(Cl)c1', '1 (yes)');

Ask: hey, is Ratio IC50 for this one >= 40? `OC[C@H]1CNCCO[C@H]1c1ccc(Cl)c(Cl)c1`
Reply: 0 (no)

Ask: Same for `NC(=O)[C@@H]1CNCCO[C@H]1c1ccc(Cl)c(Cl)c1`
Reply: 0 (no)

Ask: Same for `OC[C@@]1(c2ccc(Cl)c(Cl)c2)CCNCCO1`
Reply: 0 (no)

* * *

IC50 reference
Target: Sodium-dependent serotonin transporter (Homo sapiens)
Assay: Inhibition of human SERT expressed in CHOK1 cells incubated for 20 mins by [3H]-5-hydroxytryptamine uptake assay
Supply the numeric figure in nM, leaving out any unit text.

Solved cases (7 shown):
INSERT INTO results (compound, display_unit, reported_result) VALUES
  ('OC[C@@]1(c2ccc(Cl)c(Cl)c2)CCNCCO1', 'nM', 200),
  ('OC[C@]1(c2ccc(Cl)c(Cl)c2)CCNCCO1', 'nM', 330),
  ('OC[C@H]1CNCCO[C@@H]1c1ccc(Cl)c(Cl)c1', 'nM', 36),
  ('OCC1(c2ccc(Cl)c(Cl)c2)CCCNCC1 (racemic)', 'nM', 35),
  ('OC[C@@H]1CNCCO[C@@H]1c1ccc(Cl)c(Cl)c1', 'nM', 11),
  ('CC(=O)NCC[C@@H]1CNCCO[C@H]1c1ccc(Cl)c(Cl)c1', 'nM', 200),
  ('OCC1(c2ccc(Cl)c(Cl)c2)CCNCCO1 (racemic)', 'nM', 200);

Now consider a different compound.
Ask: Which value of IC50 has been reported for `Cl.OC[C@@H]1CNCCO[C@H]1c1ccc(Cl)c(Cl)c1` in the records?
Reply: 97
